# setup-conditions: 321.15 K; 100 kPa; Liquid; Vibrating tube method
Numbers after ± are expanded uncertainties.
readout-kind: mass density
Remember to follow the number with its unit.

Quick one: give me mass density for each item below, same order please.
1. CC[N+](C)(C)CCCO.O=S(=O)([N-]S(=O)(=O)C(F)(F)F)C(F)(F)F
2. CCCC[N+](CCO)(CCO)CCO.O=S(=O)([N-]S(=O)(=O)C(F)(F)F)C(F)(F)F
3. C[N+](CCO)(CCO)CCO.O=S(=O)([N-]S(=O)(=O)C(F)(F)F)C(F)(F)F
4. CCCC[N+](C)(C)CC.O=S(=O)([N-]S(=O)(=O)C(F)(F)F)C(F)(F)F
5. CC[N+](CCO)(CCO)CCO.O=S(=O)([N-]S(=O)(=O)C(F)(F)F)C(F)(F)F
6. CC[N+](C)(CCO)CCO.O=S(=O)([N-]S(=O)(=O)C(F)(F)F)C(F)(F)F
7. CC[N+](C)(C)CCOC.O=S(=O)([N-]S(=O)(=O)C(F)(F)F)C(F)(F)F

RESULT:
1443.4 ± 1.1 kg/m3
1436.7 ± 1.1 kg/m3
1546.1 ± 1.2 kg/m3
1351.5 ± 1.1 kg/m3
1509.6 ± 1.2 kg/m3
1494.6 ± 1.2 kg/m3
1409.5 ± 1.1 kg/m3

###

# setup-conditions: 351.15 K; 100 kPa; Liquid; Vibrating tube method
Exercise: for every item that follows, state its recorded mass density.
Numbers only, in kg/m3.

Solved entries:
{"compound-structure-string": "CCCC[N+](CCO)(CCO)CCO.O=S(=O)([N-]S(=O)(=O)C(F)(F)F)C(F)(F)F", "output-unit": "kg/m3", "mass density": 1411.1}
{"compound-structure-string": "CC[N+](CCO)(CCO)CCO.O=S(=O)([N-]S(=O)(=O)C(F)(F)F)C(F)(F)F", "output-unit": "kg/m3", "mass density": 1483.8}
{"compound-structure-string": "C[N+](CCO)(CCO)CCO.O=S(=O)([N-]S(=O)(=O)C(F)(F)F)C(F)(F)F", "output-unit": "kg/m3", "mass density": 1519.7}
{"compound-structure-string": "CC[N+](C)(C)CCCO.O=S(=O)([N-]S(=O)(=O)C(F)(F)F)C(F)(F)F", "output-unit": "kg/m3", "mass density": 1417.6}
{"compound-structure-string": "CC[N+](C)(C)CCOC.O=S(=O)([N-]S(=O)(=O)C(F)(F)F)C(F)(F)F", "output-unit": "kg/m3", "mass density": 1382.2}

Quick one: give me mass density for each item below, same order please.
1. CCCC[N+](C)(C)CC.O=S(=O)([N-]S(=O)(=O)C(F)(F)F)C(F)(F)F
2. CC[N+](C)(CCO)CCO.O=S(=O)([N-]S(=O)(=O)C(F)(F)F)C(F)(F)F

RESULT:
1325.9
1468.6

###

# setup-conditions: 342.15 K; 100 kPa; Liquid; Vibrating tube method
readout-kind: mass density (kg/m3)
Answers are plain numbers, in kg/m3.

Solved entries:
{"compound-structure-string": "CC[N+](C)(CCO)CCO.O=S(=O)([N-]S(=O)(=O)C(F)(F)F)C(F)(F)F", "mass density (kg/m3)": 1476.3}
{"compound-structure-string": "CC[N+](C)(C)CCCO.O=S(=O)([N-]S(=O)(=O)C(F)(F)F)C(F)(F)F", "mass density (kg/m3)": 1425.3}
{"compound-structure-string": "CC[N+](C)(C)CCOC.O=S(=O)([N-]S(=O)(=O)C(F)(F)F)C(F)(F)F", "mass density (kg/m3)": 1390.4}
{"compound-structure-string": "CCCC[N+](CCO)(CCO)CCO.O=S(=O)([N-]S(=O)(=O)C(F)(F)F)C(F)(F)F", "mass density (kg/m3)": 1418.7}
{"compound-structure-string": "CCCC[N+](C)(C)CC.O=S(=O)([N-]S(=O)(=O)C(F)(F)F)C(F)(F)F", "mass density (kg/m3)": 1333.5}
{"compound-structure-string": "CC[N+](CCO)(CCO)CCO.O=S(=O)([N-]S(=O)(=O)C(F)(F)F)C(F)(F)F", "mass density (kg/m3)": 1491.4}

QUERY: Give its mass density value. Item: C[N+](CCO)(CCO)CCO.O=S(=O)([N-]S(=O)(=O)C(F)(F)F)C(F)(F)F
RESULT: 1527.5

###

# setup-conditions: 363.15 K; 100 kPa; Liquid; Concentric cylinders viscometry
Exercise: for every item that follows, state its recorded viscosity.
One number for each entry, in mPa·s.

Solved entries:
{"compound-structure-string": "C[N+](CCO)(CCO)CCO.O=S(=O)([N-]S(=O)(=O)C(F)(F)F)C(F)(F)F", "viscosity / mPa·s": 25.8}
{"compound-structure-string": "CC[N+](C)(C)CCCO.O=S(=O)([N-]S(=O)(=O)C(F)(F)F)C(F)(F)F", "viscosity / mPa·s": 14.3}
{"compound-structure-string": "CC[N+](C)(CCO)CCO.O=S(=O)([N-]S(=O)(=O)C(F)(F)F)C(F)(F)F", "viscosity / mPa·s": 18.4}
{"compound-structure-string": "CCCC[N+](C)(C)CC.O=S(=O)([N-]S(=O)(=O)C(F)(F)F)C(F)(F)F", "viscosity / mPa·s": 11}
{"compound-structure-string": "CCCC[N+](CCO)(CCO)CCO.O=S(=O)([N-]S(=O)(=O)C(F)(F)F)C(F)(F)F", "viscosity / mPa·s": 31.1}
{"compound-structure-string": "CC[N+](CCO)(CCO)CCO.O=S(=O)([N-]S(=O)(=O)C(F)(F)F)C(F)(F)F", "viscosity / mPa·s": 30}

Consider the record given below.
QUERY: Give its viscosity value. Item: CC[N+](C)(C)CCOC.O=S(=O)([N-]S(=O)(=O)C(F)(F)F)C(F)(F)F
RESULT: 8.8

###

Exercise: for every item that follows, state its recorded mass density.
# setup-conditions: 325.15 K; 100 kPa; Liquid; Vibrating tube method
Numbers only, in kg/m3.

Solved entries:
{"compound-structure-string": "CC[N+](C)(C)CCCO.O=S(=O)([N-]S(=O)(=O)C(F)(F)F)C(F)(F)F", "mass density (kg/m3)": 1439.9}
{"compound-structure-string": "CC[N+](C)(CCO)CCO.O=S(=O)([N-]S(=O)(=O)C(F)(F)F)C(F)(F)F", "mass density (kg/m3)": 1491}
{"compound-structure-string": "CC[N+](CCO)(CCO)CCO.O=S(=O)([N-]S(=O)(=O)C(F)(F)F)C(F)(F)F", "mass density (kg/m3)": 1506.1}
{"compound-structure-string": "CCCC[N+](CCO)(CCO)CCO.O=S(=O)([N-]S(=O)(=O)C(F)(F)F)C(F)(F)F", "mass density (kg/m3)": 1433.2}

Quick one: give me mass density for each item below, same order please.
1. CCCC[N+](C)(C)CC.O=S(=O)([N-]S(=O)(=O)C(F)(F)F)C(F)(F)F
2. CC[N+](C)(C)CCOC.O=S(=O)([N-]S(=O)(=O)C(F)(F)F)C(F)(F)F
3. C[N+](CCO)(CCO)CCO.O=S(=O)([N-]S(=O)(=O)C(F)(F)F)C(F)(F)F

RESULT:
1348
1405.9
1542.5

###

Exercise: for every item that follows, state its recorded mass density.
# setup-conditions: 326.15 K; 100 kPa; Liquid; Vibrating tube method
Numbers only, in kg/m3.

Solved entries:
{"compound-structure-string": "CCCC[N+](CCO)(CCO)CCO.O=S(=O)([N-]S(=O)(=O)C(F)(F)F)C(F)(F)F", "output-unit": "kg/m3", "mass density": 1432.4}
{"compound-structure-string": "CC[N+](C)(C)CCCO.O=S(=O)([N-]S(=O)(=O)C(F)(F)F)C(F)(F)F", "output-unit": "kg/m3", "mass density": 1439}
{"compound-structure-string": "C[N+](CCO)(CCO)CCO.O=S(=O)([N-]S(=O)(=O)C(F)(F)F)C(F)(F)F", "output-unit": "kg/m3", "mass density": 1541.6}
{"compound-structure-string": "CC[N+](CCO)(CCO)CCO.O=S(=O)([N-]S(=O)(=O)C(F)(F)F)C(F)(F)F", "output-unit": "kg/m3", "mass density": 1505.2}
{"compound-structure-string": "CC[N+](C)(CCO)CCO.O=S(=O)([N-]S(=O)(=O)C(F)(F)F)C(F)(F)F", "output-unit": "kg/m3", "mass density": 1490.2}

Quick one: give me mass density for each item below, same order please.
1. CCCC[N+](C)(C)CC.O=S(=O)([N-]S(=O)(=O)C(F)(F)F)C(F)(F)F
2. CC[N+](C)(C)CCOC.O=S(=O)([N-]S(=O)(=O)C(F)(F)F)C(F)(F)F

RESULT:
[1347.2, 1404.9]

From: the NIST ThermoML archive (doi:10.1021/acs.jced.9b00442)
